Just for reference, patent US7138361B2 is where these values come from.

Recorded measurements of Plant response rating, Cupgrass, Woolly, one per entry
System: woolly cupgrass (Eriochloa villosa)
Assay: Test C postemergence
Assay type: in vivo
Details: Rate 250 g/ha, scale 0 to 100 (0 no effect, 100 complete control)
Output spec: single numeric token, no unit.

Study these solved cases before continuing.
CCCC(C)c1ccn(C2CCN(c3ccc(Cl)c(OC)c3)C2=O)n1 (stereo not shown) :: 30
Cc1ccc(N2CCC(n3ccc(C(C)(C)C)n3)C2=O)cc1OCCCl (stereo not shown) :: 0
CCC(C)c1ccn(C2SCN(c3cccc(OC(F)(F)F)c3)C2=O)n1 (stereo not shown) :: 0
CCC(C)c1ccn(C2SCN(c3cccc(C(F)(F)F)c3)C2=O)n1 (stereo not shown) :: 0
CCC(C)c1ccn(C2CCN(c3ccc(Cl)c(OC)c3)C2=O)n1 (stereo not shown) :: 0

In: // lookup Plant response rating, Cupgrass, Woolly | system=woolly cupgrass (Eriochloa villosa) | key= COc1cc(N2CCC(n3ccc(C(C)(C)C)n3)C2=O)ccc1Br (stereo not shown)
Out: 50

In: Same read-out for CCOc1cc(N2CCC(n3ccc(C(C)(C)C)n3)C2=O)ccc1C (stereo not shown) ?
Out: 40

In: Same read-out for CCCC(C)c1ccn(C2OCN(c3cccc(OC(F)(F)F)c3)C2=O)n1 (stereo not shown) ?
Out: 40

In: Same read-out for CCC(C)c1ccn(C2CCN(c3ccc(Br)c(OC)c3)C2=O)n1 (stereo not shown) ?
Out: 50

In: Same read-out for O=C1C(n2ccc(C3CCC3)n2)SCN1c1cccc(OC(F)(F)F)c1 (stereo not shown) ?
Out: 0

----------
Tested on: cocklebur (Xanthium strumarium)
Assay: Test C postemergence
Format: in vivo
Conditions: Rate 250 g/ha, scale 0 to 100 (0 no effect, 100 complete control)
Recorded measurements of Plant response rating, Cocklebur, one per entry
Output spec: single numeric token, no unit.

Study these solved cases before continuing.
CCC(CC)c1ccn(C2OCN(c3cccc(OC(F)F)c3)C2=O)n1 (stereo not drawn) :: 30
CCC(C)c1ccn(C2SCN(c3cccc(OC(F)(F)F)c3)C2=O)n1 (stereo not drawn) :: 0

Consider now this further compound.
In: // lookup Plant response rating, Cocklebur | system=cocklebur (Xanthium strumarium) | key= CCOc1cc(N2CCC(n3ccc(C(C)(C)C)n3)C2=O)ccc1C (stereo not drawn)
Out: 90

----------
System: chickweed (Stellaria media)
Assay: Test C postemergence
Type: in vivo
Settings: Rate 125 g/ha, scale 0 to 100, 0 no effect, 100 complete control
RESULT TYPE: Plant response rating, Chickweed

In: // lookup Plant response rating, Chickweed | system=chickweed (Stellaria media) | key= CCC(CC)c1ccn(C2CCN(c3ccc(C)c(OC)c3)C2=O)n1 (stereo not shown)
Out: 20

----------
Recorded measurements of Plant response rating, Lambsquarters, one per entry
Tested on: lambsquarters (Chenopodium album)
Experiment: Test B preemergence
Type: in vivo
Settings: preemergence; Rate 125 g/ha; scale 0 to 100, 0 no effect, 100 complete control
Output spec: single numeric token, no unit.

Cc1ccc(N2CCC(n3ccc(C(C)(C)C)n3)C2=O)cc1Br (centres unmarked) :: 0
O=C1C(n2ccc(C3CC3)n2)SCN1c1cccc(C(F)(F)F)c1 (centres unmarked) :: 100
CCC(C)c1nn(C2CCN(c3cccc(C(F)(F)F)c3)C2=O)cc1Cl (centres unmarked) :: 0
O=C1C(n2ccc(C3CCC3)n2)SCN1c1cccc(OC(F)(F)F)c1 (centres unmarked) :: 100

Consider now this further compound.
In: Need Plant response rating, Lambsquarters of O=C1C(n2ccc(C3CCC3)n2)SCN1c1cccc(C(F)(F)F)c1 (centres unmarked) , thanks.
Out: 100

----------
Test system: rice (Oryza saliva)
Assay: Test C flooded paddy test
Assay type: in vivo
Conditions: Flooded Paddy; Rate 500 g/ha; scale 0 to 100, 0 no effect, 100 complete control
Recorded measurements of Rice plant response rating, one per entry
Output spec: single numeric token, no unit.

Study these solved cases before continuing.
CCCC(C)c1ccn(C2CCN(c3cccc(OCC)c3)C2=O)n1 (stereo not drawn) [Compound 129] :: 35
CCC(C)c1ccn(C2CCN(c3cccc(OC)c3)C2=O)n1 (stereo not drawn) [Compound 95] :: 90
CC(C)(C)c1ccn(C2CCN(c3cccc(OC(F)F)c3)C2=O)n1 (stereo not drawn) [Compound 76] :: 80
Cc1ccc(N2CCC(n3ccc(C(C)(C)C)n3)C2=O)cc1OCCCl (stereo not drawn) [Compound 109] :: 20
CC(C)(C)c1ccn(C2CCN(c3cccc(S(C)(=O)=O)c3)C2=O)n1 (stereo not drawn) [Compound 102] :: 0
CC(C)(C)c1ccn(C2CCN(c3ccc(Cl)c(Cl)c3)C2=O)n1 (stereo not drawn) [Compound 34] :: 20
CC(C)Oc1ccn(C2CCN(c3cccc(C(F)(F)F)c3)C2=O)n1 (stereo not drawn) [Compound 59] :: 20
CC(C)(C)c1ccn(C2SCN(c3cccc(OC(F)F)c3)C2=O)n1 (stereo not drawn) [Compound 36] :: 90

Consider now this further compound.
In: // lookup Rice plant response rating | system=rice (Oryza saliva) | key= CC(C)(C)c1ccn(C2CCN(c3ccc4c(c3)CCC4)C2=O)n1 (stereo not drawn) [Compound 105]
Out: 30

----------
Tested on: johnsongrass (Sorghum halepense)
Test: Test C preemergence
Format: in vivo
Details: preemergence; Rate 125 g/ha; scale 0 to 100, 0 no effect, 100 complete control
Parameter threshold = 40. Response is T when Plant response rating, Johnsongrass meets or exceeds it, else F.

Examples from the recorded data:
CC1(c2ccn(C3SCN(c4cccc(OC(F)(F)F)c4)C3=O)n2)CC1 (centres unmarked) [Compound 63] :: T
CC(C)(C)c1ccn(C2CCN(c3cccc(C(F)(F)F)c3)C2=S)n1 (centres unmarked) [Compound 22] :: F
O=C1C(n2ccc(C3CC3)n2)CCN1c1cccc(C(F)(F)F)c1 (centres unmarked) [Compound 8] :: F
CC(C)(C)c1ccn(C2SCN(c3cccc(OC(F)F)c3)C2=O)n1 (centres unmarked) [Compound 36] :: T

# ---- query molecule ----
In: In plain terms: is recorded Plant response rating, Johnsongrass at least 40 for CC(C)(C)c1ccn(C2CCN(c3ccc(Cl)c(Cl)c3)C2=O)n1 (centres unmarked) [Compound 34] ?
Out: F

----------
Tested on: yellow nutsedge (Cyperus esculentus)
Experiment: Test C preemergence
Assay type: in vivo
Settings: Rate 125 g/ha; scale 0 to 100, 0 no effect, 100 complete control
RESULT TYPE: Plant response rating, Nutsedge
Output spec: single numeric token, no unit.

Study these solved cases before continuing.
CCOc1cccc(N2CCC(n3ccc(C(C)(C)C)n3)C2=O)c1 (centres unmarked) [Compound 130] :: 80
CCC(C)c1ccn(C2CCN(c3cccc(OC(C)C)c3)C2=O)n1 (centres unmarked) [Compound 83] :: 0
CSc1cccc(N2CCC(n3ccc(C(C)(C)C)n3)C2=O)c1 (centres unmarked) [Compound 86] :: 0
COc1cccc(N2CCC(n3ccc(C(C)(C)C)n3)C2=O)c1 (centres unmarked) [Compound 87] :: 20

In: Need Plant response rating, Nutsedge of CCC(CC)c1ccn(C2OCN(c3cccc(OC(F)F)c3)C2=O)n1 (centres unmarked) [Compound 131] , thanks.
Out: 90

----------
Recorded measurements of Plant response rating, Foxtail, Giant, one per entry
System: giant foxtail (Setaria faberii)
Experiment: Test C preemergence
Assay type: in vivo
Conditions: Rate 62 g/ha; scale 0 to 100, 0 no effect, 100 complete control
Output spec: single numeric token, no unit.

CCOC(=O)c1cccc(N2CCC(n3ccc(C(C)(C)C)n3)C2=O)c1 (stereo not shown) :: 30
CC(C)c1ccn(C2SCN(c3cccc(OC(F)F)c3)C2=O)n1 (stereo not shown) :: 0
CC(C)c1ccn(C2OCN(c3cccc(C(F)(F)F)c3)C2=O)n1 (stereo not shown) :: 70

Consider now this further compound.
In: // lookup Plant response rating, Foxtail, Giant | system=giant foxtail (Setaria faberii) | key= O=C1C(n2ccc(C3CCCCC3)n2)OCN1c1cccc(C(F)(F)F)c1 (stereo not shown)
Out: 70

----------
Test system: pigweed (Amaranthus retroflexus)
Experiment: Test C postemergence
Format: in vivo
Settings: Rate 500 g/ha, scale 0 to 100 (0 no effect, 100 complete control)
RESULT TYPE: Plant response rating, Pigweed
Output spec: single numeric token, no unit.

CCC(C)c1ccn(C2CCN(c3ccc(Br)c(OC)c3)C2=O)n1 (centres unmarked) :: 90

In: // lookup Plant response rating, Pigweed | system=pigweed (Amaranthus retroflexus) | key= CCC(CC)c1ccn(C2OCN(c3cccc(OC(F)(F)F)c3)C2=O)n1 (centres unmarked)
Out: 100

In: Same read-out for COc1cc(N2CCC(n3ccc(C(C)(C)C)n3)C2=O)ccc1Cl (centres unmarked) ?
Out: 100

In: Same read-out for CCC(CC)c1ccn(C2OCN(c3cccc(OC(F)F)c3)C2=O)n1 (centres unmarked) ?
Out: 100

In: Same read-out for CCC(C)c1ccn(C2CCN(c3ccc(C)c(OC)c3)C2=O)n1 (centres unmarked) ?
Out: 70
